Can you tell me log10(CC50 at 24 h) for the items I'm about to list?
Test: Cytotoxicity against human MCF7 cells assessed as reduction in cell viability measured after 24 hrs by MTT assay
Assay type: cell-based
Answers are given as log10 of CC50 at 24 h in µg/mL.

Observe how each entry below is paired with its result.
CCCCCCCCCCCC[N+]12CC[N+](CCCC[N+]34CC[N+](CCCCCCCCCCCC)(CC3)CC4)(CC1)CC2; 0.60
Clc1ccccc1C(c1ccccc1)(c1ccccc1)n1ccnc1; 0.70
CCCCCCCCCCCC[N+]12CC[N+](C/C=C/C[N+]34CC[N+](CCCCCCCCCCCC)(CC3)CC4)(CC1)CC2; 0.90
CCCCCCCCCCCC[N+]12CC[N+](Cc3ccccc3C[N+]34CC[N+](CCCCCCCCCCCC)(CC3)CC4)(CC1)CC2; 0.60
CCCCCCCCCCCC[N+]12CC[N+](CCCCC[N+]34CC[N+](CCCCCCCCCCCC)(CC3)CC4)(CC1)CC2; 0.85

I need log10(CC50 at 24 h) for every entry listed below, if you could help.
1. O=C(O)c1cn(C2CC2)c2cc(N3CCNCC3)c(F)cc2c1=O
2. CCCCCCCCCCCC[N+]12CC[N+](CC#CC[N+]34CC[N+](CCCCCCCCCCCC)(CC3)CC4)(CC1)CC2
3. CCCCCCCCCCCC[N+]12CC[N+](CCC[N+]34CC[N+](CCCCCCCCCCCC)(CC3)CC4)(CC1)CC2
4. CCCCCCCCCCCC[N+]12CC[N+](Cc3cccc(C[N+]45CC[N+](CCCCCCCCCCCC)(CC4)CC5)c3)(CC1)CC2
5. CCCCCCCCCCCC[N+]12CC[N+](Cc3ccc(C[N+]45CC[N+](CCCCCCCCCCCC)(CC4)CC5)cc3)(CC1)CC2

1. 1.78
2. 1.36
3. 0.70
4. 1.23
5. 1.20
